Biological target: Rho-associated protein kinase 1 (Homo sapiens, UniProt Q13464)
Sequence (Q13464 whole entry): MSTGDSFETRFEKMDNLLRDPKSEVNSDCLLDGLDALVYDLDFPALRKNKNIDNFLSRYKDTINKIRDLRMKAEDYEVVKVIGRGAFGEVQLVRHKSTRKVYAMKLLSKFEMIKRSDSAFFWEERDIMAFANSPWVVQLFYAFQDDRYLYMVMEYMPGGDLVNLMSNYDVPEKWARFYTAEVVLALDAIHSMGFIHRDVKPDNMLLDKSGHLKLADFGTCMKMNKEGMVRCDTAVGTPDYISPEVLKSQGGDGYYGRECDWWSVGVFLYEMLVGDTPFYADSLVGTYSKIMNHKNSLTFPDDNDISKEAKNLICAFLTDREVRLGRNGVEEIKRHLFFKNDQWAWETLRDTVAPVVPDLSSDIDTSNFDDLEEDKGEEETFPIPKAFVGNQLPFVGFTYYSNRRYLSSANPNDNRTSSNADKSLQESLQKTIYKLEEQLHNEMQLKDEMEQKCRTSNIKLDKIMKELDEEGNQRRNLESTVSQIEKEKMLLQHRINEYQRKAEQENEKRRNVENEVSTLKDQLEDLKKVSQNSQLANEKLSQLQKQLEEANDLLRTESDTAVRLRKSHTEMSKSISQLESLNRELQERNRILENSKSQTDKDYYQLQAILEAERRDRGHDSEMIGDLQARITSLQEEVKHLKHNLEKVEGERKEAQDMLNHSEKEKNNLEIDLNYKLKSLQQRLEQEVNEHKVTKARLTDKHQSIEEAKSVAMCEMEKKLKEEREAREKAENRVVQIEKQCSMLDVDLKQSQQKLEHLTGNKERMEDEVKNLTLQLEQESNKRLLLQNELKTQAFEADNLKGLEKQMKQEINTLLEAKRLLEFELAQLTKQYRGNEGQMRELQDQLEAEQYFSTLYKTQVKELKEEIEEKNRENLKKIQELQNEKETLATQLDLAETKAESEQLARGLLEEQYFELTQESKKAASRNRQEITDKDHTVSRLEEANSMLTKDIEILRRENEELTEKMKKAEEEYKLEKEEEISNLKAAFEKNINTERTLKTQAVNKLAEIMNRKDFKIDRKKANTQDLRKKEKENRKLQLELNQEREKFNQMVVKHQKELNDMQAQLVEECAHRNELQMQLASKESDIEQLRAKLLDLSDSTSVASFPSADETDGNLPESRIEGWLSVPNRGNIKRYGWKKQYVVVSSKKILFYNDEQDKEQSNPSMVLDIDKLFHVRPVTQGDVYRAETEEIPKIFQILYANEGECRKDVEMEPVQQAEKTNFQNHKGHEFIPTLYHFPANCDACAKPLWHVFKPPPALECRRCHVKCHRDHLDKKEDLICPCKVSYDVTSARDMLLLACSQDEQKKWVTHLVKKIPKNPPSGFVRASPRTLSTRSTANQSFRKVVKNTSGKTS
assay_readout: pIC50
# reply with the number alone; pIC50 is -log10 of concentration in mol/L

entry_smiles: COc1cccc(CN2CCOc3cc(-c4ccnc5[nH]ccc45)ccc3C2=O)c1
pIC50: 6.99

entry_smiles: N#Cc1cccc(CN2CCOc3cc(-c4ccncc4)ccc3C2=O)c1
pIC50: 5.51

entry_smiles: O=C1c2ccc(-c3ccncc3)cc2OCCN1Cc1cccc(OC(F)(F)F)c1
pIC50: 5.03

Exercise: Notebook entry, Rho-associated protein kinase 1 (Homo sapiens, UniProt Q13464) assay: pIC50 of O=C1c2ccc(-c3ccncc3)cc2OCCN1Cc1cccc(C(F)(F)F)c1 = ?
Solution: 5.71

---

pIC50: −log10 of the molar value.
The compounds below have reported pIC50 for Rho-associated protein kinase 1 (Homo sapiens, UniProt Q13464).

entry_smiles: COc1cccc(CN2CCCc3cc(-c4ccc5[nH]ncc5c4)ccc3C2=O)c1
target_under_test: Rho-associated protein kinase 1 (Homo sapiens, UniProt Q13464)
pIC50: < 5.00

Exercise: Notebook entry, Rho-associated protein kinase 1 (Homo sapiens, UniProt Q13464) assay: pIC50 of COc1cccc(CN2CCOc3cc(-c4ccc(N)nc4)ccc3C2=O)c1 = ?
Solution: < 5.00

Exercise: Notebook entry, Rho-associated protein kinase 1 (Homo sapiens, UniProt Q13464) assay: pIC50 of COc1cccc(CN2CCOc3cc(-c4cncnc4)ccc3C2=O)c1 = ?
Solution: < 5.00
